Quick reference for apparent KD of MS2 coat protein among some sequences
System: MS2 coat protein
PROCEDURE DETAILS: apparent KD of MS2 coat protein; designed switch direction (-1 OFF switch, 1 ON switch): -1; higher = weaker reporter binding
COND: Eterna round: R95; input ligand: microRNA oligo, concentration not stated
READOUT LABEL: apparent KD of MS2 coat protein (nM)

>>> numeric_readout("UUUUACCGAGGAUAUACAUAUAAAUAAUAAUCCUCAUUAUUACAUGAGGAUCACCCAUGUAGAAGGCGGAUUUU [Mat - Exclusion 2 - Mod of Hog - D88] (puzzle: Exclusion 2)")
96.3
>>> numeric_readout("UUAUACGGUGAGGAUAUCUCCACUAAAGUGUGAAGAGAAGGCGCUACAUGAGGAUCACCCAUGUCUAUGGGCAG [Ex-6 Malc#16] (puzzle: Exclusion 6)")
262
>>> numeric_readout("GGUGGACAUGAGGAUCACCCAUGUGAGGAUAUCGGCUGGCUAGUGGCGGAUGGCUUCUCGAGAAGGCGCAUAGU [Exclusion 1 V80] (puzzle: Exclusion 1)")
50.2

---

The sequences listed here are annotated with their apparent KD of MS2 coat protein.
Test system: MS2 coat protein
PROCEDURE DETAILS: apparent KD of MS2 coat protein; designed switch direction (-1 OFF switch, 1 ON switch): -1; higher = weaker reporter binding
COND: input ligand: none
READOUT LABEL: apparent KD of MS2 coat protein

>>> result("CAAGUCCUUUACUACAAGCACAUGAGGAUCACCCAUGUCAAAUUUGUGCCUCGGUACGGAAGCUCGUCUUUUCGUAG [Eternabot (L2) Solution 1] (Eterna round: R97, puzzle: Sensor, turn-off variant 1)")
"35.6 nM"
>>> result("CCCGCAGGUUUUUUGCUCGACAUGAGGAUCACCCAUGUUGCGUGGGUUGUGUGUGUGCGGUGUAUAUAUAUGGUCCU [-24.5, -48 kcal, A 14%] (Eterna round: R97, puzzle: Sensor, turn-off variant 1)")
"371 nM"

---

Overview of reported apparent KD of MS2 coat protein across a group of sequences:
System: MS2 coat protein
PROCEDURE DETAILS: apparent KD of MS2 coat protein; designed switch direction (-1 OFF switch, 1 ON switch): -1; higher = weaker reporter binding
COND: input ligand: FMN 200 uM
READOUT LABEL: apparent KD of MS2 coat protein

>>> result("UUUUGCACGCUGCGGUCCUACAUGAGGAUCACCCAUGUGGUCUGGUGGCGUGGGUCGCCGGACUUGGCUCGUCUUGA [salish99_S_TOV1_R5_037] (Eterna round: R97, puzzle: Sensor, turn-off variant 1)")
"0.0175 µM"
>>> result("UACAUGAGGAUCACCCAUGUUUUGUCGUGUAUGGUAUUUAUCUAGGAUAUCAUUGUAUUUAGUUAUGAGAAGGAGAAUAUUAAU [JMF's solution 83] (Eterna round: R96, puzzle: Exclusion NG 3)")
"0.0302 µM"
>>> result("AACUGAUCUUGAGGAUAUCAAACACAUGAGGAUCACCCAUGUCACGAGACGGUGCUUUCCAGGAGUGAGAAGGUAAGCAGCGAG [Eternabot solution 44] (Eterna round: R96, puzzle: Exclusion NG 2)")
"0.031 µM"
>>> result("AAGUCCUUGUGGACACAUGAGGAUCACCCAUGUGCGGUCAGCGAGGAUAUCGGUCUAUAAUGUGACGAGAAGGCGCGGACCGAU [Ex NG3 #61] (Eterna round: R96, puzzle: Exclusion NG 3)")
"0.0262 µM"
>>> result("AUGAGGUGAGGAUAUACGAGAUGAUAUUGCAGAGCAAGUCAGUAGAAGGCACAUGAGGAUCACCCAUGUUCGGG [Eternabot (L2) Solution 93] (Eterna round: R97, puzzle: Exclusion 4)")
"0.269 µM"
>>> result("GCACGACAUCAGGAUAUGACUAGCUGCGGCUAGUCAGAAGGGAUGACAUGAGGAUCACCCAUGUGAUCACGUGC [E6/2-B3] (Eterna round: R97, puzzle: Exclusion 6)")
"0.114 µM"
>>> result("UUGGAGAGAGGAUAUCCCUAGUUUAACAUGAGGAUCACCCAUGUGCGCGUCAAGUCGAAAGGAGAAGGUUCGGCGA [Eternabot (L1) Solution 5] (Eterna round: R97, puzzle: Exclusion 5)")
"0.0327 µM"
>>> result("CCGGAAAGGAAGGAUAUGCUAGACGAGAGUCUAGCAGAAGGUCCUACAUGAGGAUCACCCAUGUGGUCCUCCGG [Mat - Exclusion 6 - Eli Mod - D34] (Eterna round: R97, puzzle: Exclusion 6)")
"0.252 µM"
>>> result("ACUUAUUGAGGAUAUACAGAAAAUUACAUGAGGAUCACCCAUGUUCUUCAAUGUAUAUAUGUAGAAGGCAGAAUAU [Mat - Exclusion 5 - JL Mod - D19] (Eterna round: R97, puzzle: Exclusion 5)")
"0.0311 µM"
